system.name: CB1 receptor (Homo sapiens)
experiment: CB1 competitive radioligand binding assay ([3H] SR141716A)
Design: expressed in transfected cells; host or cells: Chem-1 cells
pKi: −log10 of the molar value.
This section presents compounds with their documented pKi values.

{"item.smiles": "CC(C)(c1ccccc1)c1cc(O)c2c(c1)OC(C)(C)[C@@H]1CC=C(C(=O)O)C[C@@H]21", "system.name": "CB1 receptor (Homo sapiens)", "pKi": "< 5.52"}
{"item.smiles": "CC(C)(CCCCCC(=O)O)c1cc(O)c2c(c1)OC(C)(C)[C@@H]1CC=C(C(=O)O)C[C@@H]21", "system.name": "CB1 receptor (Homo sapiens)", "pKi": "< 5.52"}
{"item.smiles": "CCCC(C)(C)c1cc(O)c2c(c1)OC(C)(C)[C@@H]1CC=C(C(=O)NC(C)(C)C(F)(F)F)C[C@@H]21", "system.name": "CB1 receptor (Homo sapiens)", "pKi": "< 5.30"}
{"item.smiles": "CCCCCCC(C)(C)c1cc(O)c2c(c1)OC(C)(C)c1ccc(C(=O)O)cc1-2", "system.name": "CB1 receptor (Homo sapiens)", "pKi": "< 5.52"}
{"item.smiles": "CCCCCCC(C)(C)c1cc(O)c2c(c1)OC(C)(C)[C@@H]1CC=C(C(=O)NS(C)(=O)=O)C[C@@H]21", "system.name": "CB1 receptor (Homo sapiens)", "pKi": "< 5.52"}

Next:
Incoming: Name the reported pKi value associated with the compound CCCCCCC(C)(C)c1cc(OC)c2c(c1)OC(C)(C)[C@@H]1CC=C(C(=O)O)C[C@@H]21
Outgoing: < 5.52

----------
system.name: CB1 receptor (Homo sapiens, UniProt P21554)
Sequence (P21554 whole entry): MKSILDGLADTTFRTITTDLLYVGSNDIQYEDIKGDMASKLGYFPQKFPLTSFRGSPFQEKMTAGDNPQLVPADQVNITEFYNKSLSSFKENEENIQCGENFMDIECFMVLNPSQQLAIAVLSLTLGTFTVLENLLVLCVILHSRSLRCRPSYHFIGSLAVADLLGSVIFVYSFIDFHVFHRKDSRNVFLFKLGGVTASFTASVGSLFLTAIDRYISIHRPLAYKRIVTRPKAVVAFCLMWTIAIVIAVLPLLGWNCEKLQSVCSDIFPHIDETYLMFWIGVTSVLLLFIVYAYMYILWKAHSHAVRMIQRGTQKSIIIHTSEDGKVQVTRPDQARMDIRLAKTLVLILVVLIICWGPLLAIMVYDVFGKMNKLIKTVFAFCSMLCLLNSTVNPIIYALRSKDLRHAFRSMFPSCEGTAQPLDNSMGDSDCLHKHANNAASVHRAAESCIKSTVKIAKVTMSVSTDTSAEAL
experiment: CB1 competitive radioligand binding assay ([3H] SR141716A)
Set-up: expressed in transfected cells; host or cells: Chem-1 cells
reported.metric: Ki

{"compound": "CCCCCCC(C)(C)c1cc(O)c2c(c1)OC(C)(C)[C@@H]1CC=C(C(=O)O)C[C@@H]21 [AJA, reference compound]", "system.name": "CB1 receptor (Homo sapiens, UniProt P21554)", "reported.metric": "Ki", "test.value": "> 3 µM"}
{"compound": "CCCCCCC(C)(C)c1c(Cl)c(O)c2c(c1Cl)OC(C)(C)[C@@H]1CC=C(C(=O)O)C[C@@H]21", "system.name": "CB1 receptor (Homo sapiens, UniProt P21554)", "reported.metric": "Ki", "test.value": "> 3 µM"}

Next:
Incoming: Name the reported Ki value associated with the compound CCCC(C)(C)c1cc(O)c2c(c1)OC(C)(C)[C@@H]1CC=C(C(=O)O)C[C@@H]21
Outgoing: > 3 µM

----------
system.name: UniProt:P34972
Sequence (P34972 whole entry): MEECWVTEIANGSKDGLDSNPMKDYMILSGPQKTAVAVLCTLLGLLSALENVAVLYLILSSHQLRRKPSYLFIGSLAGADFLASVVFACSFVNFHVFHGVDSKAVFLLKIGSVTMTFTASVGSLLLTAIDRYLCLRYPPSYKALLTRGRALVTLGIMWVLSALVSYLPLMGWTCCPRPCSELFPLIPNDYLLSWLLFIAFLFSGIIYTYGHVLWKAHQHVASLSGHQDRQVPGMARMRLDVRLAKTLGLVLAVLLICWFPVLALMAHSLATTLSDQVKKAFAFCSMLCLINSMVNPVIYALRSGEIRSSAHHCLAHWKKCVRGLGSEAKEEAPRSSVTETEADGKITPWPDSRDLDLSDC
experiment: CB2 competitive radioligand binding assay ([3H] WIN-55,212-2)
Design: expressed in transfected cells; host or cells: CHO-K1 cells
test.context: 0.05 μM compound, 2.4 nM [3H] WIN-55,212-2, 90 min 37° C.
reported.metric: inhibition at 0.05 µM (%)
Write the answer as a number in %, unit excluded.

{"item.smiles": "CCCCCCC(C)(C)c1cc(O)c2c(c1)OC(C)(C)[C@@H]1CC=C(C(=O)N[C@H]3CC[C@H](O)CC3)C[C@@H]21", "system.name": "UniProt:P34972", "unit.string": "%", "inhibition at 0.05 µM": 8}
{"item.smiles": "CCCCCCCC(C)(C)c1cc(O)c2c(c1)OC(C)(C)[C@@H]1CC=C(C(=O)O)C[C@@H]21", "system.name": "UniProt:P34972", "unit.string": "%", "inhibition at 0.05 µM": 18}

Next:
Incoming: Name the reported inhibition at 0.05 µM value associated with the compound CCCCCCC(C)(C)c1cc(O)c2c(c1)OC(C)(C)[C@@H]1CC=C(C(=O)N[C@H](C)CCO)C[C@@H]21
Outgoing: 47

From: patent US20210284621A1
